Test system: HeLa KRas G12C cells
Experiment: Cellular growth inhibition assay (CTG), HeLa KRas G12C cells
Type: cell-based
Details: Homo sapiens, CellTiter-Glo 2.0, day-5
Task for the reader: assign each of the following compounds its reported GI50.

Some solved entries appear below for comparison.
Compound	System Tested	GI50
C=C(F)C(=O)N1CCN(c2nc(OC[C@@H]3CCCN3CCCOCCOCCOCCOCCOCCOCCOCCOCCOCCOCCOCCCCCc3ccc(Cl)cc3NC(=O)NCc3ccc4c(c3)CN(C3CCC(=O)NC3=O)C4=O)nc3c2CCN(c2cccc4cccc(Cl)c24)C3)C[C@@H]1CC#N (stereo partly shown) [Compound I-138]	HeLa KRas G12C cells	3000 to 10000 nM
C=C(F)C(=O)N1CCN(c2nc(OC[C@@H]3CCCN3CCCOCCOCCOCCOCCOCCOCCOCCCCCc3cccc(NC(=O)NCc4ccc5c(c4)CN(C4CCC(=O)NC4=O)C5=O)n3)nc3c2CCN(c2cccc4cccc(Cl)c24)C3)C[C@@H]1CC#N (stereo partly shown) [Compound I-147]	HeLa KRas G12C cells	3000 to 10000 nM

Could you tell me GI50 for each of these compounds? They are listed below.
1. C=C(F)C(=O)N1CCN(c2nc(OC[C@@H]3CCCN3CCOCCOCCOCCOCCOCCOCCOCCOCCOCCOCCOCCOCCCCCCCCCCCCCCc3cc(Cl)cc(NC(=O)NCc4ccc5c(c4)CN(C4CCC(=O)NC4=O)C5=O)c3)nc3c2CCN(c2cccc4cccc(Cl)c24)C3)C[C@@H]1CC#N (stereo partly shown) [Compound I-53]
2. C=C(F)C(=O)N1CCN(c2nc(OC[C@@H]3CCCN3CCOCCOCCOCCOCCOCCOCCOCCOCCOCCOCCc3cc(Cl)cc(NC(=O)NCc4ccc5c(c4)CN(C4CCC(=O)NC4=O)C5=O)c3)nc3c2CCN(c2cccc4cccc(Cl)c24)C3)C[C@@H]1CC#N (stereo partly shown) [Compound I-12]

[reply]
["< 1000 nM", "3000 to 10000 nM"]

* * *

Biological target: GSPT1 (Homo sapiens, UniProt P15170+Q96SW2)
Construct: host or cells: HEK293 LgBiT cell line
Sequence (P15170 whole entry): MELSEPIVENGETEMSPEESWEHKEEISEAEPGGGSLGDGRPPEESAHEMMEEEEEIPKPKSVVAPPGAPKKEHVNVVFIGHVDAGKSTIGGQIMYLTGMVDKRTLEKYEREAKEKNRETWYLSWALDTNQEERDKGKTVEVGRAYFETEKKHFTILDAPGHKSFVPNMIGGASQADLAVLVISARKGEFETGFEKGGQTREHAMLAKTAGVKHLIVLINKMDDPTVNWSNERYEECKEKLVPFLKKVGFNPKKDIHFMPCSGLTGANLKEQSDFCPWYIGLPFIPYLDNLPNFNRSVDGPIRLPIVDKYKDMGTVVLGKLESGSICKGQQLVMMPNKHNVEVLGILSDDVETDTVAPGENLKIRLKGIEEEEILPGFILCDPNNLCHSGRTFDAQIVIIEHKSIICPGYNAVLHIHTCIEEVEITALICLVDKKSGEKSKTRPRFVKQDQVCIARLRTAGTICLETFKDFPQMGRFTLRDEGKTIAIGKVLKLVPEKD
Sequence (Q96SW2 whole entry): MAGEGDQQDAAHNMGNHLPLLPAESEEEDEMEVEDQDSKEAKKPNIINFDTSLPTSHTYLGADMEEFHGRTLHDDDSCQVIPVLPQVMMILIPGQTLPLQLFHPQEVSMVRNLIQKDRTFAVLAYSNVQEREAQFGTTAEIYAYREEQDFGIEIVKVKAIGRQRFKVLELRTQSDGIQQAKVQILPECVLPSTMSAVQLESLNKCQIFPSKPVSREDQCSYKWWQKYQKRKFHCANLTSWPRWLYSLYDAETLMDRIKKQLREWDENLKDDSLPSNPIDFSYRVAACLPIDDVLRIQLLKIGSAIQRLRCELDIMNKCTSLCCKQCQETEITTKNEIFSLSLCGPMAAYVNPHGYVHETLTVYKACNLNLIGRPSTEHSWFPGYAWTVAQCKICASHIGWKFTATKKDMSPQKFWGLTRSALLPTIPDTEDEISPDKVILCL
Sequence (Q16531 whole entry partner): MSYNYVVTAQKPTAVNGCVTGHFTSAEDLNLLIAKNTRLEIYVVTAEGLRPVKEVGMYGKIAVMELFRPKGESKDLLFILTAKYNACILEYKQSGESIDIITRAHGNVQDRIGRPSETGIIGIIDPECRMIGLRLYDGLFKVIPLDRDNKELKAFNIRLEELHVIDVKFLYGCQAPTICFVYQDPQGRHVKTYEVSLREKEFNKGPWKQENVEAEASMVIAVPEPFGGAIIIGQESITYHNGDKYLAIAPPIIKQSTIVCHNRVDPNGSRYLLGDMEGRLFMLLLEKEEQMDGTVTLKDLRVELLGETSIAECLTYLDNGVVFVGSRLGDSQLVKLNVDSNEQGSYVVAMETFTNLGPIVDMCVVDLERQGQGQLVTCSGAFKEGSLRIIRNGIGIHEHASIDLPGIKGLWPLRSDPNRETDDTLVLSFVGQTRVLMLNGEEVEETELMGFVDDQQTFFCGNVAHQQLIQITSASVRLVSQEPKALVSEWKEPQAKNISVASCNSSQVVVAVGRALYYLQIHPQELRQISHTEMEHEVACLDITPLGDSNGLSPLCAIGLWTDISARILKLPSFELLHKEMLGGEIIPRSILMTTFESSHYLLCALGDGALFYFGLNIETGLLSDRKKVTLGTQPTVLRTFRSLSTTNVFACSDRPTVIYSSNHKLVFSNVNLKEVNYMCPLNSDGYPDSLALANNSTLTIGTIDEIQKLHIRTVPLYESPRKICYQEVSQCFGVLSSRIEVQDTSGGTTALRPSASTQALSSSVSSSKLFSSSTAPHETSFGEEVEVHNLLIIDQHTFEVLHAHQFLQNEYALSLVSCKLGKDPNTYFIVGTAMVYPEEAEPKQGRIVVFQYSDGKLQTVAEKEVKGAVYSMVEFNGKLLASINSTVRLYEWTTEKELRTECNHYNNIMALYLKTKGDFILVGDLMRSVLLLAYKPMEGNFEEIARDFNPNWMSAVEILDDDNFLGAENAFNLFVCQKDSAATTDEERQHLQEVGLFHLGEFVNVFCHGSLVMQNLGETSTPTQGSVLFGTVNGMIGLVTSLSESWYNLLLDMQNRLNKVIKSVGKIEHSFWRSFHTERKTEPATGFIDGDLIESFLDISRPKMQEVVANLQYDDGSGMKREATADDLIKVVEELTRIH
Test: GSPT1 HiBit degradation assay
Type: cell-based
Conditions: Table 3; HEK293 LgBiT cells expressing GSPT1_HiBiT, luminescence after 6 hours
Text: Promega developed a HEK293 cell line that constitutively expresses LgBiT protein and GSPT1_HiBiT fusion protein. […] Endurazine, a cell permeable small molecule, is converted by cellular esterases into furimazine, which the luciferase enzyme uses as a substrate to generate luminescence. […] This prevents formation of fully functional luciferase, leading to a loss in luminescence. GSPT1 degradation therefore correlates with a decrease in luminescence and can be measured continuously over time. […]
Task for the reader: assign each of the following compounds its reported DC50.

Some solved entries appear below for comparison.
Compound	DC50
Cc1c(CC(=O)N(C)C)ccc(NC(=O)c2nn(C3CCCN(C(=O)/C=C/CN(C)CCOCCOCCOCCOCCOCCOCCCCCCCCc4cc(Cl)cc(NC(=O)NCc5ccc6c(c5)CN(C5CCC(=O)NC5=O)C6=O)c4)C3)c3ncnc(N)c23)c1C (centres unmarked) [Compound I-65]	< 0.25 µM
C=C(F)C(=O)N1CCN(c2nc(OC[C@@H]3CCCN3CCOCCOCCOCCOCCOCCOCCOCCOCCOCCOCCOCCOCCOc3cc(Cl)cc(NC(=O)NCc4ccc5c(c4)CN(C4CCC(=O)NC4=O)C5=O)c3)nc3c2CCN(c2cccc4cccc(Cl)c24)C3)C[C@@H]1CC#N (some centres unmarked) [Compound I-42]	> 10 µM
C=CC(=O)N1CCN(c2nc(NCCCCCCCCc3cccc4c3CN(C3CCC(=O)NC3=O)C4=O)nc3c(F)c(-c4cc(O)cc5ccccc45)c(Cl)cc23)CC1 (centres unmarked) [Compound I-8]	> 10 µM

Could you tell me DC50 for each of these compounds? They are listed below.
1. C=C(F)C(=O)N1CCN(c2nc(OC[C@@H]3CCCN3CCOCCOCCOCCOCCCCCCCCc3cc(Cl)cc(NC(=O)NCc4ccc5c(c4)CN(C4CCC(=O)NC4=O)C5=O)c3)nc3c2CCN(c2cccc4cccc(Cl)c24)C3)C[C@@H]1CC#N (some centres unmarked) [Compound I-40]
2. CN(C/C=C/C(=O)N1CCC([C@@H]2CCNc3c(C(N)=O)c(-c4ccc(Oc5ccccc5)cc4)nn32)CC1)CCOCCOCCOCCOCCCCCCCCc1cc(Cl)cc(NC(=O)NCc2ccc3c(c2)CN(C2CCC(=O)NC2=O)C3=O)c1 (some centres unmarked) [Compound I-74]
3. C=C(F)C(=O)N1CCN(c2nc(OC[C@@H]3CCCN3CCOCCOCCOCCOCCOCCOCCOCCOCCc3cc(Cl)cc(NC(=O)NCc4ccc5c(c4)CN(C4CCC(=O)NC4=O)C5=O)c3)nc3c2CCN(c2cccc4cccc(Cl)c24)C3)C[C@@H]1CC#N (some centres unmarked) [Compound I-11]

[reply]
< 0.25 µM
< 0.25 µM
> 10 µM
